- measurement.target: human TLR7 (Homo sapiens, UniProt Q9NYK1)
- Sequence (Q9NYK1 27-1049): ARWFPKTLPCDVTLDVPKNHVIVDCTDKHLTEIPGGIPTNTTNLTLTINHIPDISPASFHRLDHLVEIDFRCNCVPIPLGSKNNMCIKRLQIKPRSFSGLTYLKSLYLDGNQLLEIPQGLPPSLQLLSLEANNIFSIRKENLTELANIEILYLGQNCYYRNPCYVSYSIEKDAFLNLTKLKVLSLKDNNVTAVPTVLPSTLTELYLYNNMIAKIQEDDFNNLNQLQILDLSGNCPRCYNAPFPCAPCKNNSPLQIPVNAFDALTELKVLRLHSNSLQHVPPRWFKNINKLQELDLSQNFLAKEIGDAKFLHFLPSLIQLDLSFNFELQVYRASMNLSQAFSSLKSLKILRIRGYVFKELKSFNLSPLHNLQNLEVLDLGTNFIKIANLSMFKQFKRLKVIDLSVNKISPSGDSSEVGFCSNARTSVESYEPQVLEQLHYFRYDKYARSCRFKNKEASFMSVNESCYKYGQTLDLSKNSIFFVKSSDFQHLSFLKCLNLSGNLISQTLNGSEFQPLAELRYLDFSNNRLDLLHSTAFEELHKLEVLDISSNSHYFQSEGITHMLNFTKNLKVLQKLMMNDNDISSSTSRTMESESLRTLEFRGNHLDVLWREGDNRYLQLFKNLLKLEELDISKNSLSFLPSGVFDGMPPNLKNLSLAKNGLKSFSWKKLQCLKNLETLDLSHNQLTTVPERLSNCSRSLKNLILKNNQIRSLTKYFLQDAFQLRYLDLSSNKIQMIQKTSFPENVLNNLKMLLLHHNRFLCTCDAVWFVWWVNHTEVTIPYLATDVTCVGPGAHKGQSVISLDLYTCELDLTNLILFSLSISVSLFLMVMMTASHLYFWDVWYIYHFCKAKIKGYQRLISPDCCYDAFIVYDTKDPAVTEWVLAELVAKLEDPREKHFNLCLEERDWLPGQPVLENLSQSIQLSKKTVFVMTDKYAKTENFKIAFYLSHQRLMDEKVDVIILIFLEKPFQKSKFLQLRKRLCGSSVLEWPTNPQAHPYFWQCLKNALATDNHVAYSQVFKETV
- test.name: HEK293-Blue-hTLR-7 cells assay
- setup.conditions: HEK293-Blue-hTLR7 cells, R848 stimulation, 20 hrs, SEAP reporter; read-out: HEK/hTLR7 IC50
- Method: HEK293-Blue-hTLR-7 Cells Assay: A stable HEK293-Blue-hTLR-7 cell line was purchased from InvivoGen (Cat. #: hkb-htlr7, San Diego, California, USA). […] The cell culture supernatant SEAP reporter activity was determined using QUANTI-Blue™ kit (Cat. #: rep-qb1, Invivogen, San Diego, Ca. USA) at a wavelength of 640 nm, a detection medium that turns purple or blue in the presence of alkaline phosphatase. […]
pIC50: −log10 of the molar value.

| molecule | result.modifier | pIC50 |
| --- | --- | --- |
| CN[C@H]1CN(c2ccc3c(c2)CN2[C@H](C)CN(c4ccc(C#N)c5ncccc45)C[C@H]32)C[C@@H]1O | > | 8.49 |
| [2H]c1ccc2c(N3C[C@@H](C)N4Cc5cc(N6CC7CNCC(C6)O7)ccc5[C@H]4C3)ccc(C#N)c2n1 | = | 8.42 |
| C[C@@H]1CN(c2ccc(C#N)c3ncccc23)C[C@@H]2c3ccc(NCCN(C)C)cc3CN12 | = | 8.24 |
| C[C@@H]1CN(c2ccc(C#N)c3ncccc23)C[C@@H]2c3cc(F)c(N4C[C@H](N)[C@@](C)(O)C4)cc3CN12 | = | 8.57 |
| C[C@@H]1CN(c2ccc(C#N)c3ncccc23)C[C@@H]2c3cc(F)c(N4CC5(CNC5)C4)cc3CN12 | = | 8.59 |
| Cc1ccc(N2C[C@@H](C)N3Cc4cc(N[C@H]5CNC[C@H]5F)ccc4[C@H]3C2)c2nccnc12 | = | 7.64 |
| C[C@@H]1CN(c2ccc(C#N)c3ncccc23)C[C@@H]2c3ccc(N4CC5(CN(C)C5)C4)cc3CN12 | = | 8.77 |
| C[C@@H]1CN(c2ccc(C#N)c3ncccc23)C[C@@H]2c3ccc(N[C@@H]4CNC[C@H]4F)cc3CN12 | > | 8.49 |
| [2H]c1ccc2c(N3C[C@@H](C)N4Cc5cc(N6CC(C)(N)C6)ccc5[C@H]4C3)ccc(C#N)c2n1 | = | 8.51 |
| CO[C@H]1CN(c2ccc3c(c2)CN2[C@H](C)CN(c4ccc(C#N)c5ncccc45)C[C@H]32)C[C@@H]1N (relative stereo) | = | 8.16 |
| C[C@@H]1CN(c2ccc(C#N)c3ncccc23)C[C@@H]2c3ccc(NC[C@H]4CNCCO4)cc3CN12 | > | 8.49 |
| C[C@@H]1CN(c2ccc(C#N)c3ncccc23)C[C@@H]2c3ccc(N4C[C@H]5NCCO[C@@H]5C4)cc3CN12 | = | 7.72 |
| C[C@@H]1CN(c2ccc(C#N)c3ncsc23)C[C@@H]2c3ccc(N[C@H]4CNC[C@H]4F)cc3CN12 | = | 8.92 |
| C[C@H]1CN(c2ccc(C#N)c3ncccc23)C[C@H]2c3ccc(N4CCNCC4)cc3CN12 | = | 7.15 |
| C[C@@H]1CN(c2ccc(C#N)c3ncccc23)C[C@@H]2c3ccc(N4C[C@H]5CNCCN5C4=O)cc3CN12 | > | 8.49 |
| C[C@@H]1CN(c2ccc(C#N)c3ncccc23)C[C@@H]2c3ccc(N4C[C@@H](N)[C@@H](F)C4)cc3CN12 | = | 8.32 |
| C[C@@H]1CN(c2ccc(C#N)c3ncccc23)C[C@@H]2c3ccc(N4CCNCC4)cc3CN12 | > | 8.49 |
| C[C@@H]1CN(c2ccc(C#N)n3nccc23)C[C@@H]2c3ccc(N4C[C@@H](N)[C@](C)(O)C4)cc3CN12 | = | 7.76 |
| C[C@@H]1CN(c2ccc(C#N)c3ncccc23)C[C@@H]2c3ccc(N4CCNC[C@@H]4CO)cc3CN12 | > | 8.49 |
| C[C@@H]1CN(c2ccc(C#N)c3ncccc23)C[C@@H]2c3ccc(N4CCNC[C@](C)(O)C4)cc3CN12 [Example 55A] | = | 8.11 |
| CN[C@H]1CN(c2ccc3c(c2)CN2[C@H](C)CN(c4ccc(C#N)c5ncccc45)C[C@H]32)C[C@@H]1OC | = | 8.15 |
| C[C@@H]1CN(c2ccc(C#N)c3ncccc23)C[C@@H]2c3ccc(N4C[C@@H]5CNCCN5C4=O)cc3CN12 | > | 8.49 |
| CO[C@H]1CNC[C@H]1Nc1ccc2c(c1)CN1[C@H](C)CN(c3ccc(C#N)c4ncccc34)C[C@H]21 | = | 8.24 |
| C[C@@H]1CN(c2ccc(C#N)c3ncccc23)C[C@@H]2c3ccc(N4CCC(C)(N)CC4)cc3CN12 | = | 8.85 |
| C[C@@H]1CN(c2ccc(C#N)c3ncccc23)C[C@@H]2c3ccc(N[C@H]4CNC[C@@H]4F)cc3CN12 | = | 8.39 |
| C[C@@H]1CN(c2ccc(C#N)c3ncccc23)C[C@@H]2c3ccc(NCCN4CC[C@H](O)C4)cc3CN12 | = | 8.48 |
| CO[C@H]1CNC[C@@H]1Nc1ccc2c(c1)CN1[C@H](C)CN(c3ccc(C#N)c4ncccc34)C[C@H]21 | = | 8.23 |
| CO[C@H]1CN(c2ccc3c(c2)CN2[C@H](C)CN(c4ccc(C#N)n5nccc45)C[C@H]32)C[C@@H]1N | = | 7.68 |

Provenance of the data: patent US12157746B2
